# maps each entry to its Ratio C481S/WT
- tested system: BTK (C481S) (Homo sapiens, UniProt Q06187, C481S)
- Construct: purchased Reaction Biology Corp., Malvern, Pa; (contract assay)
- Sequence (Q06187 whole entry C481S): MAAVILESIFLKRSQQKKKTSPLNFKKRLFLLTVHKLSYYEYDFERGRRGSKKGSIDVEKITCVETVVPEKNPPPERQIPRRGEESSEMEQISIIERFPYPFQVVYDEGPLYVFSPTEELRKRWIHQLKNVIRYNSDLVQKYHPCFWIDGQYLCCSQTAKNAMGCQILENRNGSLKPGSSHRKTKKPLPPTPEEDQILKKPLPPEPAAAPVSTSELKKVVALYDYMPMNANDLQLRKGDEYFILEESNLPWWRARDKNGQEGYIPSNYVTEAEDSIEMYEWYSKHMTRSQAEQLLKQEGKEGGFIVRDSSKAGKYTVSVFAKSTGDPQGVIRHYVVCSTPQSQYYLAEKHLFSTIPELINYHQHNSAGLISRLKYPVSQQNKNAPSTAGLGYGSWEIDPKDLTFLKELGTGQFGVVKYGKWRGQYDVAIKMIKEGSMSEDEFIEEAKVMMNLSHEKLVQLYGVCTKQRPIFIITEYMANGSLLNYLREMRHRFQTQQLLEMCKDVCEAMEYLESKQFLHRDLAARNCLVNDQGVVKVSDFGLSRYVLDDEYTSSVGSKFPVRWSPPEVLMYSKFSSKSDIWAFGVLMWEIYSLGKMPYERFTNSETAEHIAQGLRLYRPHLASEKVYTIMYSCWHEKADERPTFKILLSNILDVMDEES
- protocol text: BTK cysteine mutant C481S inhibition (Reaction Biology Corp.)
- Type: biochemical
- condition summary: ratio of the BTK IC50 values, C481S over wild-type
The answer should be a number; do not append a unit.

Query :: # lookup: Ratio C481S/WT of "C=CC(=O)N1CCOc2ccc(-c3csc4c(=O)cc(N5CCNCC5)oc34)cc21"
Result :: 52.0

Query :: Quick one: Ratio C481S/WT for "N#C/C(=C\C1CC1)C(=O)Nc1cccc(-c2csc3c(=O)cc(N4CCOCC4)oc23)c1" ?
Result :: 1.3

Switching to the query record.
Query :: Give the measured Ratio C481S/WT of "CC#CC(=O)Nc1cccc(-c2csc3c(=O)cc(N4CCOCC4)oc23)c1" .
Result :: 15.8
